Test: AUC(0 to t) in male rat at 10 mg/kg, po measured upto 24 hrs by LC/MS/MS analysis
Format: ADME, organism-based
Conditions: in vivo
Form field: AUC(0-t) at 24 h (one value per entry).
The figure you give is taken to be in ng·h/mL; do not add the unit.

# count of solved cases: 2
{"smiles code": "CC(C)C[C@@H](CO)N1CCc2c(oc3c2C(=O)C(=O)c2ccccc2-3)C1", "value units": "ng·h/mL", "measurement": 55.1}
{"smiles code": "O=C1C(=O)c2c(oc3c2CCN(CCO)C3)-c2ccccc21", "value units": "ng·h/mL", "measurement": 47.2}

INPUT: Name the reported AUC(0-t) at 24 h value associated with the molecule CC(C)C[C@@H](CO)N1CCc2c(oc3c2C(=O)C(=O)c2ccccc2-3)C1.Cl
OUTPUT: 107

====

Assay: Tmax in male rat at 10 mg/kg, po measured upto 24 hrs by LC/MS/MS analysis
Type: ADME, organism-based
Conditions: in vivo
Form field: Tmax (one value per entry).
The figure you give is taken to be in min; do not add the unit.

{"smiles code": "O=C1C(=O)c2c(oc3c2CCN(CCO)C3)-c2ccccc21", "value units": "min", "Tmax": 66}

INPUT: Name the reported Tmax value associated with the molecule CC(C)C[C@@H](CO)N1CCc2c(oc3c2C(=O)C(=O)c2ccccc2-3)C1
OUTPUT: 12

INPUT: Name the reported Tmax value associated with the molecule CC(C)C[C@@H](CO)N1CCc2c(oc3c2C(=O)C(=O)c2ccccc2-3)C1.Cl
OUTPUT: 24

====

Experiment: Antiproliferative activity against human MCF-10A cells assessed as cell viability incubated for 48 hrs measured after additional incubation with MTT
Type: toxicity, cell-based
Form field: IC50 at 48 h (one value per entry).
The figure you give is taken to be in µM; do not add the unit.

{"molecule": "O=C1C(=O)c2c(oc3c2CCN(CCCO)C3)-c2ccccc21", "IC50 at 48 h [µM]": 11.1}
{"molecule": "O=C1C(=O)c2c(oc3c2CCN(C(=O)N2CCOCC2)C3)-c2ccccc21", "IC50 at 48 h [µM]": 16.8}
{"molecule": "COC(=O)CN1CCc2c(oc3c2C(=O)C(=O)c2ccccc2-3)C1", "IC50 at 48 h [µM]": 4.89}
{"molecule": "O=C1C(=O)c2c(oc3c2CCN(C(=O)c2ccccc2)C3)-c2ccccc21", "IC50 at 48 h [µM]": 19.2}
{"molecule": "CC(=O)N1CCc2c(oc3c2C(=O)C(=O)c2ccccc2-3)C1", "IC50 at 48 h [µM]": 17.8}
{"molecule": "CC(=O)c1cc2c(o1)C(=O)c1ccccc1C2=O [NAPABUCASIN]", "IC50 at 48 h [µM]": 7.94}

Continue with the next molecule.
INPUT: Name the reported IC50 at 48 h value associated with the molecule O=C1C(=O)c2c(oc3c2CCN(CCO)C3)-c2ccccc21
OUTPUT: 2.89

====

Test system: MDA-MB-468
Experiment: Antiproliferative activity against human MDA-MB-468 cells assessed as cell viability incubated for 48 hrs measured after additional incubation with MTT
Type: functional, cell-based
Conditions: MDA-MB-468, 48 h
property label: log10 of IC50 (log10 of the value in µM)
Recorded IC50 (log10, µM)

{"compound": "CNC(=O)CN1CCc2c(oc3c2C(=O)C(=O)c2ccccc2-3)C1", "subject of test": "MDA-MB-468", "property label": "log10 of IC50", "measurement": 0.68}

INPUT: Name the reported log10 of IC50 value associated with the compound O=C1C(=O)c2c(oc3c2CCNC3)-c2ccccc21
OUTPUT: 0.97

INPUT: Name the reported log10 of IC50 value associated with the compound COC(=O)[C@H](C)N1CCc2c(oc3c2C(=O)C(=O)c2ccccc2-3)C1
OUTPUT: 0.37

INPUT: Name the reported log10 of IC50 value associated with the compound COC(=O)[C@H](Cc1ccccc1)N1CCc2c(oc3c2C(=O)C(=O)c2ccccc2-3)C1
OUTPUT: 1.06

INPUT: Name the reported log10 of IC50 value associated with the compound CC(=O)c1cc2c(o1)C(=O)C(=O)c1ccccc1-2
OUTPUT: 0.40

INPUT: Name the reported log10 of IC50 value associated with the compound O=C1C(=O)c2c(oc3c2CCN(C(=O)c2ccc(C(F)(F)F)cc2)C3)-c2ccccc21
OUTPUT: 1.17

INPUT: Name the reported log10 of IC50 value associated with the compound O=C1C(=O)c2c(oc3c2CCN(C(=O)c2ccc(F)cc2)C3)-c2ccccc21
OUTPUT: 1.08

INPUT: Name the reported log10 of IC50 value associated with the compound CNC(=O)[C@H](CC(C)C)N1CCc2c(oc3c2C(=O)C(=O)c2ccccc2-3)C1
OUTPUT: 0.87

INPUT: Name the reported log10 of IC50 value associated with the compound CC(=O)c1cc2c(o1)C(=O)c1ccccc1C2=O [NAPABUCASIN]
OUTPUT: 0.72

====

Assay: AUC(0 to infinity) in male rat at 10 mg/kg, po measured upto 24 hrs by LC/MS/MS analysis
Format: ADME, organism-based
Settings: in vivo
Form field: AUC(0-inf) (one value per entry).
Reply with the number and its unit after it.

{"smiles code": "CC(C)C[C@@H](CO)N1CCc2c(oc3c2C(=O)C(=O)c2ccccc2-3)C1.Cl", "measurement": "106 ng·h/mL"}
{"smiles code": "CC(C)C[C@@H](CO)N1CCc2c(oc3c2C(=O)C(=O)c2ccccc2-3)C1", "measurement": "56.7 ng·h/mL"}

Continue with the next compound.
INPUT: Name the reported AUC(0-inf) value associated with the compound O=C1C(=O)c2c(oc3c2CCN(CCO)C3)-c2ccccc21
OUTPUT: 50.1 ng·h/mL

====

Assay: Tmax in male rat at 5 mg/kg, iv measured upto 24 hrs by LC/MS/MS analysis
Assay type: ADME, organism-based
Settings: in vivo
property label: Tmax (min)
The figure you give is taken to be in min; do not add the unit.

# count of solved cases: 2
{"smiles code": "O=C1C(=O)c2c(oc3c2CCN(CCO)C3)-c2ccccc21", "measurement": 4.8}
{"smiles code": "CC(C)C[C@@H](CO)N1CCc2c(oc3c2C(=O)C(=O)c2ccccc2-3)C1.Cl", "measurement": 4.8}

INPUT: Name the reported Tmax value associated with the compound CC(C)C[C@@H](CO)N1CCc2c(oc3c2C(=O)C(=O)c2ccccc2-3)C1
OUTPUT: 4.2

====

Test: AUC(0 to infinity) in male rat at 5 mg/kg, iv measured upto 24 hrs by LC/MS/MS analysis
Assay type: ADME, organism-based
Conditions: in vivo
property label: AUC(0-inf) (ng·h/mL)
The figure you give is taken to be in ng·h/mL; do not add the unit.

INPUT: Name the reported AUC(0-inf) value associated with the compound O=C1C(=O)c2c(oc3c2CCN(CCO)C3)-c2ccccc21
OUTPUT: 645

INPUT: Name the reported AUC(0-inf) value associated with the compound CC(C)C[C@@H](CO)N1CCc2c(oc3c2C(=O)C(=O)c2ccccc2-3)C1
OUTPUT: 618

INPUT: Name the reported AUC(0-inf) value associated with the compound CC(C)C[C@@H](CO)N1CCc2c(oc3c2C(=O)C(=O)c2ccccc2-3)C1.Cl
OUTPUT: 493

====

Test system: MDA-MB-468
Assay: Antiproliferative activity against human MDA-MB-468 cells assessed as cell viability incubated for 48 hrs measured after additional incubation with MTT
Type: functional, cell-based
Settings: MDA-MB-468, 48 h
property label: IC50 (µM)
The figure you give is taken to be in µM; do not add the unit.

{"smiles code": "O=C1C(=O)c2c(oc3c2CCN(C(=O)c2ccco2)C3)-c2ccccc21", "value units": "µM", "IC50": 12.9}

INPUT: // lookup IC50 | system=MDA-MB-468 | key= COc1ccc(C(=O)N2CCc3c(oc4c3C(=O)C(=O)c3ccccc3-4)C2)cc1OC
OUTPUT: 5.82

====

Assay: Tmax in male rat at 10 mg/kg, ip measured upto 24 hrs by LC/MS/MS analysis
Assay type: ADME, organism-based
Details: in vivo
Form field: Tmax (one value per entry).
The figure you give is taken to be in min; do not add the unit.

{"smiles code": "O=C1C(=O)c2c(oc3c2CCN(CCO)C3)-c2ccccc21", "property label": "Tmax", "measurement": 42}
{"smiles code": "CC(C)C[C@@H](CO)N1CCc2c(oc3c2C(=O)C(=O)c2ccccc2-3)C1", "property label": "Tmax", "measurement": 6}

INPUT: Name the reported Tmax value associated with the compound CC(C)C[C@@H](CO)N1CCc2c(oc3c2C(=O)C(=O)c2ccccc2-3)C1.Cl
OUTPUT: 6
